Experiment: mutant p53 pathway re-activators, primary screen, cell-based, SW480, luciferase, single point, HTS (AID 624151)
Conditions: SW480 PUMA-promoter luciferase, p53 mutant reactivation; at 9.98 µM; active compounds read high
Among all 28,000 compounds or so, about 410 (1.5%) were called active. Many of the other results were omitted from the sample, so actives are more common in it than they were.
RESULT TYPE: activation (%)
Answers are plain numbers, in %.

COMPOUND | UNIT DESCRIPTOR | ASSAY VALUE
CCc1cc(C(=O)OC)c(NC(=S)Nc2ccc(OC)cc2[N+](=O)[O-])s1 | % | 62.7
COc1cccc(C#Cc2cnc3c(c2)C(=O)N([C@@H](C)CO)C[C@H](C)[C@@H](CN(C)C(=O)C2CCC2)O3)c1 | % | 9.52

For every record below, what is its activation?
1. CNC[C@H]1Oc2ncc(-c3ccccc3C)cc2C(=O)N([C@@H](C)CO)C[C@@H]1C
2. COc1ccc(OC(C)C(=O)Nc2cccnc2)cc1 (centres undefined)
3. COC(=O)c1c(NC(=S)Nc2ccc(OC)cc2[N+](=O)[O-])sc2c1CCC(C)C2 (centres undefined)
4. C[C@H]1CN([C@@H](C)CO)C(=O)c2cc(C3=CCCC3)cnc2O[C@H]1CN(C)Cc1ccccc1C(=O)O
5. CC(C)Cc1nc(SCC(=O)Nc2ccc3ccccc3c2)n[nH]1

6.16
-3.84
4.27
16.5
9.32

Look at each compound and report its activation.
1. COc1ccccc1-c1nnc(SCC(=O)Nc2ccccc2)o1
2. CCCN(Cc1cc2cccc(C)c2[nH]c1=O)S(C)(=O)=O

1. 28.3
2. -2.56

Give activation for each listed item.
1. COc1cc(NC(=O)COc2ccccc2Br)c(OC)cc1Cl
2. O=C(O)CCSc1nnc2c(n1)[nH]c1ccccc12
3. C[C@@H]1CN([C@@H](C)CO)C(=O)c2cc(/C=C/c3ccccc3)cnc2O[C@H]1CN(C)C(=O)Nc1ccc(C(F)(F)F)cc1
4. COc1ccc(OC)c(NC(=O)CSc2n[nH]c(-c3ccncc3)n2)c1
5. CCCN(C)C[C@@H]1Oc2cc(-c3cccc(C#N)c3)ccc2S(=O)(=O)N([C@@H](C)CO)C[C@@H]1C

132
-2.83
-18.8
-8.93
2.45

State recorded activation for all listed compounds.
1. O=C(CSc1nnc(-c2ccncc2)n1-c1ccccc1)Nc1ccc(Cl)c(Cl)c1
2. COc1cc(NC(=O)COc2ccc(Br)cc2)ccc1NC(=O)c1ccccc1Cl
3. CCn1c(SCC(=O)Nc2cc(Cl)c(Cl)cc2Cl)nnc1-c1ccccc1Cl
4. COc1ccc(NC(=O)CSc2nnnn2C)cc1Cl
5. CCc1ccccc1NC(=O)COc1cc(O)c2c(=O)cc(-c3ccccc3)oc2c1
6. COC(=O)c1cc(OC)c(OC)cc1NC(=O)c1cc(-c2ccc(C)o2)nc2ccccc12

16.3
20.3
-3.77
47.7
-9.5
21.7

Each compound below has a recorded value; state its activation.
1. Cc1[nH]c2ccccc2c1C(=O)CSc1ccc2ccccc2n1
2. Cn1nc(CC(=O)Nc2ccc3c(c2)oc2ccccc23)c2ccccc2c1=O
3. C[C@@H]1CCCCO[C@H](CN(C)S(C)(=O)=O)[C@@H](C)CN([C@H](C)CO)C(=O)c2cc(NS(=O)(=O)c3ccc(Cl)cc3)ccc2O1
4. Cc1ccnc(NC(c2cccc([N+](=O)[O-])c2)c2ccc3ccc(C)nc3c2O)c1 (centres undefined)
5. COC(=O)COc1cccc(NC(=O)c2cc(OC)c(OC)c(OC)c2)c1
6. C[C@H]1CN([C@@H](C)CO)C(=O)c2cc(C#CCN(C)C)cnc2O[C@H]1CN(C)C(=O)Cc1ccccc1
7. C/C=C/c1ccc2c(c1)O[C@H](CN(C)Cc1cccc(F)c1)[C@H](C)CN([C@H](C)CO)S2(=O)=O
8. CCOc1ccc(Cl)cc1S(=O)(=O)NC1CC(C)(C)NC(C)(C)C1

-16.4
-34.2
2.27
-13.9
9.43
-0.24
-12.7
2.34

If you can, please state the reported activation value of CC(=O)Nc1ccc(NC(=O)COc2ccccc2C(=O)Nc2cccc(Cl)c2Cl)cc1 .
-38.7

----------
Kindly supply the reported activation values for the records listed here.
Assay: mutant p53 pathway re-activators, primary screen, cell-based, SW480, luciferase, single point, HTS (AID 624151)
Settings: SW480 PUMA-promoter luciferase, p53 mutant reactivation; at 9.98 µM; active compounds read high
The whole screen tested about 28,000 compounds, of which about 410 (1.5%) were called active. This is one part of a sample in which actives are shown more often than they occur.
Answers are plain numbers, in %.

Examples with answers:
MOLECULE | UNIT DESCRIPTOR | activation
Cc1ccc(C(=O)Oc2ccc(C(=O)CSc3nc4ccccc4o3)cc2)cc1 | % | 45.6
Cc1ccc2oc(C(=O)Nc3nnc(SCc4ccccc4)s3)c(C)c2c1 | % | 17.4
O=C(CS(=O)(=O)c1ccccc1)Nc1ccccc1O | % | 7.6

Required: activation, one value per molecule below.
1. Cc1cc(C)c2oc(-c3cccc(NC(=O)COc4ccc(Br)cc4)c3C)nc2c1
2. Cc1ccnc(NCc2ccc(N(C)C)cc2)c1
3. COc1ccc(S(=O)(=O)N(C)CC(=O)Nc2ccc3c(c2)OCCO3)cc1OC
4. Cc1ccc2nc(-c3ccc(Cl)c(NC(=O)COc4ccc(Br)cc4)c3)oc2c1
5. COc1cc(Cl)c(C)cc1NC(=O)CN(C)S(=O)(=O)c1ccc2ccccc2c1
6. Cc1ccc(C)c(OCC(=O)Nc2ccccc2C#N)c1
7. O=C(CSc1nnc(-c2ccncc2)n1-c1ccc(Cl)cc1)Nc1ccc(C(=O)O)cc1
8. C[C@@H]1CN([C@H](C)CO)C(=O)c2c(c3ccccc3n2C)-c2ccccc2CO[C@H]1CN(C)S(=O)(=O)c1ccccc1F

1: -29.6; 2: 45.6; 3: -12.9; 4: 91.4; 5: 14.5; 6: 121; 7: 7.38; 8: 1.72

// batch mode: one activation value per listed entry
1. COc1cccc(C#Cc2cnc3c(c2)C(=O)N([C@@H](C)CO)C[C@H](C)[C@H](CN(C)CC2CC2)O3)c1
2. Cc1cc(C)cc(OCC(=O)Nc2cccc(-c3nnc(-c4ccccc4)o3)c2)c1
3. COc1ccccc1CC(=O)Nc1ccc(-c2nnc(-c3ccc(C)cc3)o2)cc1
4. O=C(C[C@H]1C[C@@H]2c3cc(NC(=O)c4ccc5c(c4)OCO5)ccc3O[C@@H]2[C@@H](CO)O1)NCCN1CCCCC1
5. COc1ccc(Cl)cc1NC(=O)CSc1nnc(-c2ccc(Cl)c(Cl)c2)n1C
6. COc1ccc(NC(=O)CSC2CC(=O)N(c3ccc(F)cc3)C2=O)cc1 (stereo not given)
7. COc1ccccc1NC(=O)C1=C(C)Nc2nnnn2C1c1ccccc1OCc1ccccc1 (stereo not given)

4.89
90.4
-31.3
13.6
1.7
-1.05
11.3

Can you give me activation for all of these, one by one?
1. O=C(C[C@H]1C[C@@H]2c3cc(NS(=O)(=O)c4ccc(F)cc4)ccc3O[C@@H]2[C@@H](CO)O1)NCc1cccc(F)c1
2. O=C(CSc1nnc(-c2ccccc2F)n1-c1ccccc1)Nc1ccc(Br)cc1
3. Cc1cc(C)c2oc(-c3ccc(C)c(NC(=O)COc4ccccc4C)c3)nc2c1
4. CCn1c2ccccc2c2cc(NS(=O)(=O)c3ccccc3[N+](=O)[O-])ccc21

-7.78
-2.35
-4.75
-0.615

Quick one: give me activation for each item below, same order please.
1. Cc1cc(C)n2nc(SCC(=O)Nc3ccccc3[N+](=O)[O-])nc2n1
2. CC(C)(C)c1ccc(OCC(=O)Nc2cccc(NC(=O)c3ccccc3)c2)cc1
3. Cc1ccccc1-c1ccc2c(c1)O[C@@H](CN(C)C(=O)Nc1ccc(F)cc1)[C@H](C)CN([C@@H](C)CO)S2(=O)=O
4. O=C(CSc1ncnc2sc3c(c12)CCCC3)Nc1ccc(F)c(Cl)c1
5. CCOC(=O)c1c(NC(=O)C(C)Oc2ccc3c(C)cc(=O)oc3c2)sc2c1CCC2 (stereo not given)
6. CCOc1ccc(NC(=O)Cn2c(=O)n(-c3ccc(Cl)cc3)c(=O)c3c4c(sc32)CCC4)cc1

1. -13.8
2. 39.6
3. -36.4
4. 0.113
5. 18.5
6. -5.81

Fill in activation for each of the 2 molecules listed.
1. O=C(CS(=O)(=O)Cc1ccccc1)Nc1cccnc1
2. COc1cc(NC(=S)NCCN2CCOCC2)c(OC)cc1Cl

-13.2
-5.79

----------
Test: mutant p53 pathway re-activators, primary screen, cell-based, SW480, luciferase, single point, HTS (AID 624151)
Settings: SW480 PUMA-promoter luciferase, p53 mutant reactivation; at 9.98 µM
The campaign covered roughly 28,000 compounds. About 410 (1.5%) were called active. Cut-off read from the data, not from the text of the source: active = activation above about 52%; inconclusive = no clear call, values can overlap the other calls; inactive = below that. What follows is part of a selection rich in actives, with near analogues and random picks from the rest.
Please answer using one outcome listed in Y for active, N for inactive

// known answers, use as guide
COMPOUND | ASSIGNED LABEL
Cc1ccc(C(C)C)cc1OCC(O)Cn1cnc2ccccc21 (stereo not given) | N
COc1ccccc1NC(=O)CSc1n[nH]c(C)n1 | N

# lookup: test call for O=C(COc1ccc2c(=O)c(-c3ccccc3)coc2c1)Nc1ccc(F)cc1
N

Could you please tell me the result logged for C/C=C/c1ccc2c(c1)O[C@H](CN(C)C(=O)Cc1cccnc1)[C@@H](C)CN([C@H](C)CO)S2(=O)=O in this assay?
N

Can you look up the reported call for Cc1ccc(-c2nnc(SCC(=O)Nc3ccccc3OC(F)F)o2)cc1 for me?
Y

Could you please tell me the result logged for Cc1ccc(S(=O)(=O)N(C)C[C@@H]2Oc3c(NC(=O)C4CC4)cccc3C(=O)N([C@H](C)CO)C[C@@H]2C)cc1 in this assay?
N

Fill in: this test's call for Cc1ccc(S(=O)(=O)c2nc(-c3cccs3)oc2NCc2cccnc2)cc1 is ___
N

Call for entry COc1ccc(-c2nnc(SCC(=O)Nc3cccc(SC)c3)n2C)cc1 :
N

Answer briefly: the call reported for CC(C)(C)c1ccc(OCC(=O)NCc2ccccn2)c(Br)c1 in this assay.
Y

Could you kindly confirm the outcome this assay logged for COc1ccc2c(c1)C(=O)CC(c1ccccc1)O2 (stereo not given) ?
Y

Which outcome was assigned to CN(c1ccc(C(=O)NCc2ccccn2)cc1)S(C)(=O)=O in this test?
N

For CCOc1csc2nc(C)cc(C)c12 , what call appears in the results of this test?
N

Hello, I am checking results. What call was entered for CCn1c(SCC(=O)O)nc2sc3c(c2c1=O)CC(C)(C)OC3 ?
N

For CCCNC(=O)N(C)C[C@@H]1Oc2ncc(-c3cccc(C#N)c3)cc2C(=O)N([C@@H](C)CO)C[C@@H]1C , which call appears in the assay record?
N

Query: recorded result category for CNC[C@H]1Oc2cc(C#CC(C)(C)O)ccc2S(=O)(=O)N([C@@H](C)CO)C[C@@H]1C in this test
N

How did this test come out for COc1cccc(C#Cc2cnc3c(c2)C(=O)N([C@@H](C)CO)C[C@H](C)[C@@H](CN(C)C(C)=O)O3)c1 ?
N

Please share the test call associated with Cc1csc2nc(SCC(=O)Nc3ccc([N+](=O)[O-])cc3)[nH]c(=O)c12 .
N

Give the logged outcome of this assay for the following compound: O=C(c1ccccc1Br)N1CCN(c2ccc([N+](=O)[O-])c(NCc3cccnc3)c2)CC1
N

Assay outcome for CCOC(=O)c1c(NC(=S)Nc2cnccn2)sc2c1CCCCCC2 : what was it?
N

For this compound, state the assay outcome: Cc1sc2ncnc(SCC(=O)Nc3ccccc3)c2c1-c1ccccc1
N

Please let me know the test result on file for CCc1ccccc1NC(=O)Cn1cnc2scc(-c3ccc(OC)cc3)c2c1=O .
N

What did the test return for Cc1cc(C)c(C)c(Oc2coc3cc(OCC(=O)Nc4ccccc4Cl)ccc3c2=O)c1 ?
N

State the result this test recorded for C[C@@H]1CN([C@H](C)CO)C(=O)c2cc(-c3cncnc3)cnc2O[C@@H]1CN(C)Cc1ccc(Oc2ccccc2)cc1 .
N
